The measurements presented in this section are drawn from patent US8871753B2.

- target.system: human JAK2 (a.a. 828-1132) (Homo sapiens, UniProt O60674)
- Construct: JAK2 (a.a. 828-1132); His tag (N); made in house; host or cells: insect cells (baculovirus)
- Sequence (O60674 828-1132): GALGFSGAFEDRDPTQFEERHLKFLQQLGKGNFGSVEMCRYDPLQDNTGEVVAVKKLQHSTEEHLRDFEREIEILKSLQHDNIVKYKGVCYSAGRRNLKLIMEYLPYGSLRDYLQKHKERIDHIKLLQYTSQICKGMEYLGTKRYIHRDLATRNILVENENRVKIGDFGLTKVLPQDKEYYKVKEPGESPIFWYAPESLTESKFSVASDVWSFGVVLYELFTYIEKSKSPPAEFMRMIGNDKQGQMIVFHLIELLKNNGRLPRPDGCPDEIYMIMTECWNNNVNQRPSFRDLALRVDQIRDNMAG
- assay.comment: In vitro JAK kinase assay (HTRF, phosphorylation of a biotinylated peptide), JAK2
- Type: biochemical
- conditions.used: Table B1
Counter-ions that a name gives are not always drawn.
experimental.endpoint: pIC50
// pIC50 is dimensionless: -log10 of concentration (M)

Prompt: What pIC50 value was documented for this molecule, CC(C)(C)NS(=O)(=O)c1cc2cc(c1)Nc1nc(ncc1Br)Nc1cccc(c1)CC2 [Example B17, trifluoroacetate] ?
Completion: 7.96

Prompt: What pIC50 value was documented for this molecule, O=C(Nc1ccc2cc1CCc1cccc(c1)Nc1ncc(Cl)c(n1)N2)Nc1ccccc1-c1ccccc1 [Example B130, trifluoroacetate] ?
Completion: 7.96

Prompt: What pIC50 value was documented for this molecule, CS(=O)(=O)N1CCC(NC(=O)Nc2ccc3cc2CCc2cccc(c2)Nc2ncc(Cl)c(n2)N3)CC1 [Example B182, trifluoroacetate] ?
Completion: 8.21

Prompt: What pIC50 value was documented for this molecule, CN1CCCC1CCNC(=O)Nc1ccc2cc1CCc1cccc(c1)Nc1ncc(Cl)c(n1)N2 (stereo not shown) [Example B256, bis(trifluoroacetate)] ?
Completion: 7.89

###

- target.system: human JAK1 (a.a. 837-1142) (Homo sapiens, UniProt P23458)
- Construct: human JAK1 (a.a. 837-1142); His tag (N); made in house; host or cells: insect cells (baculovirus)
- Sequence (P23458 849-1154): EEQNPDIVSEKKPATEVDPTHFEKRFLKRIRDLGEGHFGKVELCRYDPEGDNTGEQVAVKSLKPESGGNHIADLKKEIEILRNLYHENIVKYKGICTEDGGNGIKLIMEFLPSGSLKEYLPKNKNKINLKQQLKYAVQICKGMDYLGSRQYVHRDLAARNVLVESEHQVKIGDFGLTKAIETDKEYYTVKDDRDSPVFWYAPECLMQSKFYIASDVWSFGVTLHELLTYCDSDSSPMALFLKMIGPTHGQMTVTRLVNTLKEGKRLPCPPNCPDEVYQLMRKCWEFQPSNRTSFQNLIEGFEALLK
- assay.comment: In vitro JAK kinase assay (HTRF, phosphorylation of a biotinylated peptide), JAK1
- Type: biochemical
- conditions.used: Table B1; read-out: JAK1 IC50
Structures can show the parent of a compound that is named as a salt.
IC50 vs 20 nM: less than gives t; not less than gives f.

Prompt: Does this molecule meet the criterion IC50 < 20 nM? O=C(Nc1ccc2cc1CCc1cncc(c1)Nc1ncc(Cl)c(n1)N2)N1CCN(C(=O)c2ccccc2)CC1 [Example B286, bis(trifluoroacetate)]
Completion: f

Prompt: Does this molecule meet the criterion IC50 < 20 nM? Clc1cnc2nc1Nc1ccc(CN3CCNCC3)c(c1)CCc1cccc(c1)N2 [Example B224, tris(trifluoroacetate)]
Completion: t

Prompt: Does this molecule meet the criterion IC50 < 20 nM? CC(=O)N1CCN(Cc2ccc3cc2CCc2cccc(c2)Nc2ncc(Cl)c(n2)N3)CC1 [Example B225, bis(trifluoroacetate)]
Completion: f

Prompt: Does this molecule meet the criterion IC50 < 20 nM? CC(C)(C)OC(=O)N1CC[C@@H](NC(=O)Nc2ccc3cc2CCc2cccc(c2)Nc2ncc(Cl)c(n2)N3)C1
Completion: t

Prompt: Does this molecule meet the criterion IC50 < 20 nM? COc1cccc(N2CCN(C(=O)Nc3ccc4cc3CCc3cncc(c3)Nc3ncc(Cl)c(n3)N4)CC2)c1 [Example B304, tris(trifluoroacetate)]
Completion: f

Prompt: Does this molecule meet the criterion IC50 < 20 nM? O=C(Nc1ccc2cc1CCc1cccc(c1)Nc1ncc(Cl)c(n1)N2)NC1CCNCC1 [Example B181, dihydrochloride]
Completion: f

Prompt: Does this molecule meet the criterion IC50 < 20 nM? CN(Cc1ccc2cc1CCc1cncc(c1)Nc1ncc(Cl)c(n1)N2)C(=O)C1CCN(c2ncccn2)CC1 [Example B338, tris(trifluoroacetate)]
Completion: f

Prompt: Does this molecule meet the criterion IC50 < 20 nM? Cc1ccc(C(=O)Nc2ccc3cc2CCc2cccc(c2)Nc2ncc(Cl)c(n2)N3)cc1 [Example B47, trifluoroacetate]
Completion: t

Prompt: Does this molecule meet the criterion IC50 < 20 nM? O=C(Nc1ccsc1)Nc1ccc2cc1CCc1cccc(c1)Nc1ncc(Cl)c(n1)N2 [Example B89, trifluoroacetate]
Completion: t

Prompt: Does this molecule meet the criterion IC50 < 20 nM? Clc1cnc2nc1Nc1ccc(Nc3nc4cccnc4o3)c(c1)CCc1cccc(c1)N2 [Example B333, tris(trifluoroacetate)]
Completion: t

###

- target.system: human JAK1 (a.a. 837-1142) (Homo sapiens)
- Construct: human JAK1 (a.a. 837-1142); His tag (N); made in house; host or cells: insect cells (baculovirus)
- assay.comment: In vitro JAK kinase assay (HTRF, phosphorylation of a biotinylated peptide), JAK1
- Type: biochemical
- conditions.used: method AA1 (90 μM ATP) or AA2 (1000 μM ATP), not stated per value; read-out: JAK1 IC50
Structures can show the parent of a compound that is named as a salt.
What IC50 was measured for each of the following?
# output: numeric value plus its unit

Prompt: What IC50 value was documented for this compound, O=C(CC1CCN(c2ncc(F)cn2)CC1)Nc1ccc2cc1CCc1cncc(c1)Nc1ncc(Cl)c(n1)N2 [Example A169, tris(trifluoroacetate)] ?
Completion: 26 nM

Prompt: What IC50 value was documented for this compound, CCNC(=O)N1CCCC(C(=O)Nc2ccc3cc2CCc2cccc(c2)Nc2ncc(Cl)c(n2)N3)C1 (stereo not shown) [Example A49, trifluoroacetate] ?
Completion: 14 nM

Prompt: What IC50 value was documented for this compound, O=C(COc1cc2cc(c1)Nc1nc(ncc1Cl)Nc1cccc(c1)CC2)Nc1ccccc1 [Example A24, trifluoroacetate] ?
Completion: 47 nM

Prompt: What IC50 value was documented for this compound, O=C(CC1CCN(C(=O)c2nc[nH]n2)CC1)Nc1ccc2cc1CCc1cncc(c1)Nc1ncc(Cl)c(n1)N2 [Example A136, bis(trifluoroacetate)] ?
Completion: 0.4 nM

###

- target.system: Recombinant Human Anaplastic Lymphoma Kinase (Homo sapiens)
- Construct: purchased Invitrogen, Carlsbad, Calif
- Sequence (Q9UM73 19-1620): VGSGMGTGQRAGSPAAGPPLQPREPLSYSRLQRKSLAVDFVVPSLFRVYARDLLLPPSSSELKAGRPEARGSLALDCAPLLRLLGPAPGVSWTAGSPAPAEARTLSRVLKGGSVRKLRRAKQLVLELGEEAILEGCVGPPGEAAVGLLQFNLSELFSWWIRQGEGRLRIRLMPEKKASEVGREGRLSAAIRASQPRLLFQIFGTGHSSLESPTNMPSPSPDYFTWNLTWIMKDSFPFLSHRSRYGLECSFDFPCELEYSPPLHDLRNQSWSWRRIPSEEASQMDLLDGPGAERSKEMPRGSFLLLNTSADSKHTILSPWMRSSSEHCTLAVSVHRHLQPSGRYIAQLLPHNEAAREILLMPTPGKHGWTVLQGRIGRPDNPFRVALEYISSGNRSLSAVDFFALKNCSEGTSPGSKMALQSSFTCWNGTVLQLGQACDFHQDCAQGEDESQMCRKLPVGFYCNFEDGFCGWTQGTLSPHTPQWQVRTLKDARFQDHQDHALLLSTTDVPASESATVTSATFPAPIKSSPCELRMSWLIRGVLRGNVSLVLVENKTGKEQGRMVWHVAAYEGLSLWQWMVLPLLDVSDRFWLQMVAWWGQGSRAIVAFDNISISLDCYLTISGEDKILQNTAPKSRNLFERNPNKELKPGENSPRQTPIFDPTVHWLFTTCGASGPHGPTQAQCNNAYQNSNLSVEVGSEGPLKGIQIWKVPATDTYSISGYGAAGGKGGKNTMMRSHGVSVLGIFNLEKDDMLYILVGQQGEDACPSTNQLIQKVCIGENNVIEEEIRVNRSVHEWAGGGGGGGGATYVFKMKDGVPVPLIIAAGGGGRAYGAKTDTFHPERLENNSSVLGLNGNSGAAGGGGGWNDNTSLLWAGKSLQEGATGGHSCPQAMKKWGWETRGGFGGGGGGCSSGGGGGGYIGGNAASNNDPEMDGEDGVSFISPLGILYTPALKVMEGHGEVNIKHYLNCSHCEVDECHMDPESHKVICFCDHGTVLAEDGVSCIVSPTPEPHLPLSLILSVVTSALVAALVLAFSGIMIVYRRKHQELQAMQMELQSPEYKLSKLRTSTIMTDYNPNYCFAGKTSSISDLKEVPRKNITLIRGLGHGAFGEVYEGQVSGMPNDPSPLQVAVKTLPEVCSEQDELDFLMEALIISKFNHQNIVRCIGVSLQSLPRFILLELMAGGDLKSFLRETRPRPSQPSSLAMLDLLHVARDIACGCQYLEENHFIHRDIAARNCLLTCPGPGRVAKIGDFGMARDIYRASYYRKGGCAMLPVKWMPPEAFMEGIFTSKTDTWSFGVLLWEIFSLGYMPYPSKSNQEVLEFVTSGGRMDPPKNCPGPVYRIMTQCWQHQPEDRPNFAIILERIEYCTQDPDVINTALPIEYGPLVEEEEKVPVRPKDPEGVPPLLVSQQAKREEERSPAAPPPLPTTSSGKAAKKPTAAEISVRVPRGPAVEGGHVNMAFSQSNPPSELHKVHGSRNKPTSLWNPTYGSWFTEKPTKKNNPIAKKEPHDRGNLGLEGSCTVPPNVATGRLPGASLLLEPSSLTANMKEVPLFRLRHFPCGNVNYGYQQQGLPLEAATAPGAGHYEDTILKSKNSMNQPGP
- assay.comment: ALK HTRF kinase assay
- Type: biochemical
- conditions.used: compound at 500 nM or 1 mM; 90 μM ATP
Where a name gives a salt, the structure may show the parent alone.
What ALK % of inhibition at a concentration of 500 nM or 1 mM was measured for each of the following?

Prompt: What ALK % of inhibition at a concentration of 500 nM or 1 mM value was documented for this compound, Nc1nonc1C(=O)N1CCC(CC(=O)Nc2ccc3cc2CCc2cncc(c2)Nc2ncc(Cl)c(n2)N3)CC1 [Example A167, tris(trifluoroacetate)] ?
Completion: 33%

Prompt: What ALK % of inhibition at a concentration of 500 nM or 1 mM value was documented for this compound, O=C(CC1CCN(C(=O)c2ncco2)CC1)Nc1ccc2cc1CCc1cncc(c1)Nc1ncc(Cl)c(n1)N2 [Example A139, bis(trifluoroacetate)] ?
Completion: 27%

Prompt: What ALK % of inhibition at a concentration of 500 nM or 1 mM value was documented for this compound, NS(=O)(=O)N1CCC(CC(=O)Nc2ccc3cc2CCc2cccc(c2)Nc2ncc(Cl)c(n2)N3)CC1 [Example A75, trifluoroacetate] ?
Completion: 51%

Prompt: What ALK % of inhibition at a concentration of 500 nM or 1 mM value was documented for this compound, CCC(=O)N1CCC(CC(=O)Nc2ccc3cc2CCc2cncc(c2)Nc2ncc(Cl)c(n2)N3)CC1 [Example A104, bis(trifluoroacetate)] ?
Completion: 26%

Prompt: What ALK % of inhibition at a concentration of 500 nM or 1 mM value was documented for this compound, O=C(CC1CCN(C(=O)c2cccnc2)CC1)Nc1ccc2cc1CCc1cccc(c1)Nc1ncc(Cl)c(n1)N2 [Example A184, bis(trifluoroacetate)] ?
Completion: 29%

Prompt: What ALK % of inhibition at a concentration of 500 nM or 1 mM value was documented for this compound, N#Cc1ccnc(N2CCC(CC(=O)Nc3ccc4cc3CCc3cncc(c3)Nc3ncc(Cl)c(n3)N4)CC2)c1 [Example A178, tris(trifluoroacetate)] ?
Completion: 26%

Prompt: What ALK % of inhibition at a concentration of 500 nM or 1 mM value was documented for this compound, O=C(CC1CCN(C(=O)c2ccc(F)cc2F)CC1)Nc1ccc2cc1CCc1cccc(c1)Nc1ncc(Cl)c(n1)N2 [Example A204, trifluoroacetate] ?
Completion: 28%

###

- target.system: TYK2 (Homo sapiens, UniProt P29597)
- Sequence (P29597 whole entry): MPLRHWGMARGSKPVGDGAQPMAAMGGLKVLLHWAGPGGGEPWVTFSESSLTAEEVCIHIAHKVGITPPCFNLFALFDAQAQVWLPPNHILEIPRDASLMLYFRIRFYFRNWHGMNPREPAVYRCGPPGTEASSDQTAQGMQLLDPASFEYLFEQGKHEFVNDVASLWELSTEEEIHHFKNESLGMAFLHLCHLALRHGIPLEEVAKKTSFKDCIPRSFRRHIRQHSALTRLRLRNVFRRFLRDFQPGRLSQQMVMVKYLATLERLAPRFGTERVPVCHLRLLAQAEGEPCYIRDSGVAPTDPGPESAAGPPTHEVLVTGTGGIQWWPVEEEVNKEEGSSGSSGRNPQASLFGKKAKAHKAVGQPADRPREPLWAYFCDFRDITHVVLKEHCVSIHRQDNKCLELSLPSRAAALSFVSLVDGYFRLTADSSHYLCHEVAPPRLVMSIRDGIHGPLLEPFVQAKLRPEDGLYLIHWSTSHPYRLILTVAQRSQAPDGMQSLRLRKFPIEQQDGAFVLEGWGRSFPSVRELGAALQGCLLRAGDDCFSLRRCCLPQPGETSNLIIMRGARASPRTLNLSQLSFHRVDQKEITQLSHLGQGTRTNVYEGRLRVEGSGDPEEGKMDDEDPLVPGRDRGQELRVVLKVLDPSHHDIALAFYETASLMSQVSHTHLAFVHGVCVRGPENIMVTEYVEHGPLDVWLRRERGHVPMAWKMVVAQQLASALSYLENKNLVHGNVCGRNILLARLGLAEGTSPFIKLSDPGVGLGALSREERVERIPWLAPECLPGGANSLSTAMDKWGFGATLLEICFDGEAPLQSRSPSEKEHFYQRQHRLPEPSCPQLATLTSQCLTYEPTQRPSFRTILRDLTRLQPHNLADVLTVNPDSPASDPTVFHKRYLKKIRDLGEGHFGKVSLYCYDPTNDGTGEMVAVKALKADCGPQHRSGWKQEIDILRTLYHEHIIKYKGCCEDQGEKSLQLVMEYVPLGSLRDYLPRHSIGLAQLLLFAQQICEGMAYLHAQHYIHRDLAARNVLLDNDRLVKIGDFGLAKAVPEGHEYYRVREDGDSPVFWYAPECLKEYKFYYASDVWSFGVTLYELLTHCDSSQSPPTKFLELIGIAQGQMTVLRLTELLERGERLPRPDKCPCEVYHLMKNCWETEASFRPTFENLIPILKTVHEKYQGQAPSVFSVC
- assay.comment: TYK2 kinase inhibition (Table A1)
- Format: biochemical
Counter-ions that a name gives are not always drawn.
experimental.endpoint: IC50

Prompt: Find the measured IC50: item O=C(CC1CCN(c2ccncc2)CC1)Nc1ccc2cc1CCc1cncc(c1)Nc1ncc(Cl)c(n1)N2 [Example A242, tris(trifluoroacetate)] , target or system TYK2 (Homo sapiens, UniProt P29597).
Completion: > 400 nM

Prompt: Find the measured IC50: item N#Cc1c(Cl)cccc1N1CCC(CC(=O)Nc2ccc3cc2CCc2cncc(c2)Nc2ncc(Cl)c(n2)N3)CC1 [Example A222, tris(trifluoroacetate)] , target or system TYK2 (Homo sapiens, UniProt P29597).
Completion: > 200 nM

Prompt: Find the measured IC50: item N#Cc1ccc(C(=O)N2CCC(CC(=O)Nc3ccc4cc3CCc3cncc(c3)Nc3ncc(Cl)c(n3)N4)CC2)cc1 [Example A190, bis(trifluoroacetate)] , target or system TYK2 (Homo sapiens, UniProt P29597).
Completion: > 200 nM

Prompt: Find the measured IC50: item O=C(CC1CCN(S(=O)(=O)c2ccccc2)CC1)Nc1ccc2cc1CCc1cccc(c1)Nc1ncc(Cl)c(n1)N2 [Example A205, trifluoroacetate] , target or system TYK2 (Homo sapiens, UniProt P29597).
Completion: > 200 nM

Prompt: Find the measured IC50: item N#Cc1ccccc1S(=O)(=O)N1CCC(COc2ccc3cc2CCc2cncc(c2)Nc2ncc(Cl)c(n2)N3)C1 (stereo not shown) [Example C57, bis(trifluoroacetate)] , target or system TYK2 (Homo sapiens, UniProt P29597).
Completion: > 400 nM

Prompt: Find the measured IC50: item N#Cc1ccc(N2CCC(CC(=O)Nc3ccc4cc3CCc3cncc(c3)Nc3ncc(Cl)c(n3)N4)CC2)nc1 [Example A179, tris(trifluoroacetate)] , target or system TYK2 (Homo sapiens, UniProt P29597).
Completion: > 200 nM

Prompt: Find the measured IC50: item O=C(CC1CCN(C(=O)c2ccc(F)cc2F)CC1)Nc1ccc2cc1CCc1cccc(c1)Nc1ncc(Cl)c(n1)N2 [Example A204, trifluoroacetate] , target or system TYK2 (Homo sapiens, UniProt P29597).
Completion: > 200 nM
